Attribution: paper PMC8247607

Some binders, each annotated with its measured pKd.
- assayedSystem: T1, MSL2 CXC domain (CXCvir) (Drosophila virilis, UniProt O76733 514-567)
- T1 sequence: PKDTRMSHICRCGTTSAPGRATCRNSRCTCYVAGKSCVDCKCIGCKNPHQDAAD
- assayMethodText: NMR 1H-15N HSQC titration
pKd: −log10 of the molar value.
measureName: pKd

INSERT INTO measurements (binder, reading) VALUES
  ('S12 (dsDNA) DNA 1: ATGAGCGAGATG DNA 2: CATCTCGCTCAT', 5.55),
  ('S12 mutant (dsDNA) DNA 1: ATGAAAAAAATG DNA 2: CATTTTTTTCAT', 5.62);
